Numbers sourced from paper PMC9174199.

SYSTEM: TthMTA1-Tthp1-Tthp2 ternary complex (ITC) (Tetrahymena thermophila, UniProt Q22GC0)
Sequence (Q22GC0 entry or part of it, one chain of several): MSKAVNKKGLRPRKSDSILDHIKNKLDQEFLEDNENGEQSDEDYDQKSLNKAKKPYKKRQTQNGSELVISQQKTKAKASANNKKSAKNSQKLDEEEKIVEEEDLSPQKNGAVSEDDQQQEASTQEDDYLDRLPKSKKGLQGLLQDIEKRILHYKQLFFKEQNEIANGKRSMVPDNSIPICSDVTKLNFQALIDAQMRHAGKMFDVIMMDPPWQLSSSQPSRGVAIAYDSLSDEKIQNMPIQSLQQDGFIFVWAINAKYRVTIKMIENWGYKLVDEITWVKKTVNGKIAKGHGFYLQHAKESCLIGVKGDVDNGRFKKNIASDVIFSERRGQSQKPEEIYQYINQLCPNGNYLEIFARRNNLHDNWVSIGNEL
ASSAY_NOTES: isothermal titration calorimetry
CONDITION_PARAMETERS: 25 °C, pH 7.5, 300 mM NaCl, no DNA
pKd: −log10 of the molar value.
QUANTITY: pKd

>>> observed_value("C[S+](CC[C@H](N)C(=O)O)C[C@H]1O[C@@H](n2cnc3c(N)ncnc32)[C@H](O)[C@@H]1O (stereo partly shown)")
4.83
